Data origin: patent US20130196935A1

experiment: MTS cytotoxicity assay on primary BAEC; assay type: cell-based, bovine; conditions: bovine, primary bovine aortic endothelial cells (BAEC), 2 mM, read-out: Viability of BAEC cells compared to control, Ave (%)
Each entry below carries its reported viability at 48 h, 2 mM.
Please format your answer as a value with the unit trailing.

>>> result("CC(C)CC(NC[C@@]1(O)OC[C@@H](O)[C@@H](O[C@@H]2O[C@H](CO)[C@H](O)[C@H](O)[C@H]2O)[C@@H]1O)C(=O)O (stereo in doubt)")
"122%"

With those in mind, consider the next compound.
The compound listed as `O=C(O)[C@H](CC1CC1)NC[C@@]1(O)OC[C@@H](O)[C@@H](O[C@@H]2O[C@H](CO)[C@H](O)[C@H](O)[C@H]2O)[C@@H]1O` has a reported viability at 48 h, 2 mM of 133%

---

test: MTS cytotoxicity assay on primary BAEC; assay type: cell-based, bovine; conditions: bovine, primary bovine aortic endothelial cells (BAEC), 0.125 mM, read-out: Viability of BAEC cells compared to control, Ave (%)
PROPERTY: viability at 48 h, 0.125 mM (%)
# unit: % | format: bare number

>>> numeric_readout("O=C(O)[C@H](CC1CC1)NC[C@@]1(O)OC[C@@H](O)[C@@H](O[C@@H]2O[C@H](CO)[C@H](O)[C@H](O)[C@H]2O)[C@@H]1O")
107

Okay, now this compound:
So, CC(C)CC(NC[C@@]1(O)OC[C@@H](O)[C@@H](O[C@@H]2O[C@H](CO)[C@H](O)[C@H](O)[C@H]2O)[C@@H]1O)C(=O)O (stereo in doubt) ? Its viability at 48 h, 0.125 mM was 104

---

Listing: viability at 48 h, 0.25 mM of selected compounds
test: MTS cytotoxicity assay on primary BAEC; format: cell-based, bovine; settings: bovine, primary bovine aortic endothelial cells (BAEC), 0.25 mM, read-out: Viability of BAEC cells compared to control, Ave (%)
Just the number please, in %, no unit attached.

>>> numeric_readout("O=C(O)[C@H](CC1CC1)NC[C@@]1(O)OC[C@@H](O)[C@@H](O[C@@H]2O[C@H](CO)[C@H](O)[C@H](O)[C@H]2O)[C@@H]1O")
133

Now let's try a different one.
viability at 48 h, 0.25 mM reported for this compound CC(C)CC(NC[C@@]1(O)OC[C@@H](O)[C@@H](O[C@@H]2O[C@H](CO)[C@H](O)[C@H](O)[C@H]2O)[C@@H]1O)C(=O)O (stereo in doubt) : 112

---

assay: MTS cytotoxicity assay on SVR cells; assay type: cell-based; settings: mouse, SVR cells; 0.125 mM; 48 hours; MTS; read-out: Viability of SVR cells compared to control, Ave (%)
Let's look at some compounds and their measured viability at 48 h, 0.125 mM.
Express the result in % but write the number alone.

>>> numeric_readout("CC(C)CC(NC[C@@]1(O)OC[C@@H](O)[C@@H](O[C@@H]2O[C@H](CO)[C@H](O)[C@H](O)[C@H]2O)[C@@H]1O)C(=O)O (stereo in doubt) [ACT-1]")
97.4

Turning now to a further compound:
So, O=C(O)[C@H](CC1CC1)NC[C@@]1(O)OC[C@@H](O)[C@@H](O[C@@H]2O[C@H](CO)[C@H](O)[C@H](O)[C@H]2O)[C@@H]1O [ACT-2] ? Its viability at 48 h, 0.125 mM was 98.2
